Test system: A549/ATCC NSCLC
Assay: NCI-60 one-dose screen, 48 h (100 = growth as untreated, 0 = no growth, -100 = all killed)
Conditions: 10 µM unless noted
Compounds without any hit were thinned out: in the full panel of roughly 83,000, 20% have a hit.
resultType: growth (%)
Express the result in % but write the number alone.

A selection of reference data follows.
{"columns": ["compound", "quantitativeReadout"],
 "data": [
  ["COc1cc2c(cc1-c1c(C)noc1C)ncc1nc(C3CCCCC3)n(C3CCC(OC(F)F)CC3)c12 (stereo unspecified)", 25.3],
  ["N#C/C(=C\\c1ccc(Br)cc1)n1nnc2cc(F)c(F)cc21", 41.5],
  ["CCCCCc1nc2c(c3c1CCCC3)CCCC2", 72.6],
  ["COc1ccc(N=Nc2ccc(O)c(=O)cc2)cc1", 5.6]
]}

*Q* Recorded growth of `COc1ccc(C(=NN=C(N)N)c2ccc(OC)cc2)cc1` , please.
*A* 46.1

*Q* Recorded growth of `C=CCn1c(C)nc2cc(Nc3nc(Cl)nc4ccccc34)ccc21` , please.
*A* 81.4

*Q* Recorded growth of `O=C1/C(=C2/C=Nc3ccccc32)N(O)c2ccccc21` , please.
*A* 94.2

*Q* Recorded growth of `O=C1N=c2cc3c(cc2=C/C1=C/c1sc(=S)n(CCc2ccc(O)cc2)c1O)OCCO3` , please.
*A* 99.1

*Q* Recorded growth of `Cc1cc(/C=C\c2ccc3ccccc3[n+]2C)c(O)c2ncccc12` , please.
*A* 12

*Q* Recorded growth of `O=C1/C(=C\c2cccnc2)SC(=S)N1CCc1ccc(O)cc1` , please.
*A* 93.9

*Q* Recorded growth of CC1(c2ccccc2)NC(=O)N(NC(=O)CSc2nc(-c3cccs3)nc3ccccc23)C1=O (stereo unspecified) , please.
*A* 79.1

---

Tested on: TK-10 renal
Test: NCI-60 one-dose screen, 48 h
Conditions: 10 µM unless noted
About 83,000 compounds went through this panel and 20% of them were active in at least one assay; those are over-represented in the sample as a whole. Activity calls are given as the source filed them. Rule for the calls: active = growth percent below 10; inactive = the rest.
Mark one answer only. Choices: active, inactive

As a guide, the following entries are already answered.
{"columns": ["smilesString", "cat"],
 "data": [
  ["COc1ccccc1CNCCCN1C(=O)c2ccc3c4c(ccc(c24)C1=O)C(=O)N(CCCNCCCCN)C3=O", "active"],
  ["Cc1cc[c-]cc1.Fc1c[c-]c(-c2ccccn2)c(F)c1.[Pt+2].c1ccc(P(C[PH+](c2ccccc2)c2ccccc2)c2ccccc2)cc1", "inactive"],
  ["COc1ccc(-c2nc(SC(C)C)nc(NNC(N)=S)c2C#N)cc1", "inactive"],
  ["O=C1/C(=C/c2ccccc2)CCc2nc3ccccc3c(/C=C/c3ccc(Cl)cc3)c21", "inactive"]
]}

Now look at this entry.
*Q* Given `COc1cc(-c2nn(-c3ccccc3)cc2-c2ccnc(NCCNS(=O)(=O)c3ccc(Cl)cc3)n2)ccc1Cl` , state the outcome it received in this test.
*A* inactive

---

Test system: OVCAR-8 ovarian
Test: NCI-60 one-dose screen, 48 h
Conditions: 10 µM unless noted
About 83,000 compounds went through this panel and 20% of them were active in at least one assay; those are over-represented in the sample as a whole. Activity calls are given as the source filed them. The calls were made as follows: active = growth percent below 10; inactive = the rest.
Mark one answer only. Choices: 1 (yes) (active), 0 (no) (inactive)

{"columns": ["compound", "cat"],
 "data": [
  ["O=C(N=c1oc2ccccc2cc1-c1cc2ccccc2[nH]1)c1ccc(Cl)cc1", "0 (no)"],
  ["CCN1C(=O)N(CC)C2Nn3c(s/c(=C4\\C(=O)N(C)c5ccccc54)c3=O)=NC21 (stereo not given)", "0 (no)"],
  ["CCN(CC)S(=O)(=O)c1cccc(-c2ccc3c(NC(=O)C4CC4)n[nH]c3c2)c1", "0 (no)"],
  ["COc1cc(C(=O)c2cc(C)c3[nH]c4ccc(Cl)cc4c3c2C)cc(OC)c1OC", "0 (no)"],
  ["O=[N+]([O-])c1ccc(Sc2cccc[n+]2[O-])c2nonc12", "0 (no)"]
]}

*Q* Given `N#Cc1c(-c2ccccc2)cc(-c2ccc(Nc3nc(Nc4ccc(F)cc4)nc(Nc4ccc(F)cc4)n3)cc2)nc1N` , state the outcome it received in this test.
*A* 0 (no)

*Q* Given `O=c1[nH][n+](-c2ccc(Cl)cc2)no1` , state the outcome it received in this test.
*A* 0 (no)

---

System: BT-549 breast
Assay: NCI-60 one-dose screen, 48 h (100 = growth as untreated, 0 = no growth, -100 = all killed)
Conditions: 10 µM unless noted
This is part of a sample that, as a whole, favours compounds with a hit. Of some 83,000 tested, about 20% had one in any assay.
Decide by growth: equal to or exceeding 70% means 1, less means -1.

As a guide, the following entries are already answered.
{"columns": ["compound", "cat"],
 "data": [
  ["N=C(N)c1ccc(-c2ccc(-c3cncc4ccccc34)s2)s1", -1],
  ["O=S(=O)(Nc1cccc(Cl)c1)c1ccc(-c2cnc(C3CC3)o2)cc1", -1],
  ["C=CCn1c(C)nc2cc(Nc3nc(Cl)nc4ccccc34)ccc21", 1],
  ["Oc1c(CN2CCCC2)cc(COCc2ccc(Br)cc2)c2cccnc12", -1],
  ["CSc1n(Cc2ccc3ccccc3c2)c(C)c[n+]1Cc1ccc2ccccc2c1", -1],
  ["COc1cc(-c2nc(N3CCN(C)CC3)c3ccccc3n2)cc(OC)c1OC", 1]
]}

*Q* Please indicate if the recorded growth for `O=C(/C=C/c1ccc(Cl)nc1)c1ccc(Cl)cc1Cl` meets or exceeds 70%.
*A* 1

*Q* Please indicate if the recorded growth for `C[n+]1cc2c3c(ccc2c2ccc4cc5c(cc4c21)OCO5)OCO3` meets or exceeds 70%.
*A* -1

*Q* Please indicate if the recorded growth for CC1(c2ccccc2)NC(=O)N(NC(=O)CSc2nc(-c3cccs3)nc3ccccc23)C1=O (stereo unspecified) meets or exceeds 70%.
*A* 1

*Q* Please indicate if the recorded growth for `Cc1c2c(c(C)c3c1oc1cc(O)ccc13)C(=O)N(CCN1CCCCC1)C2=O` meets or exceeds 70%.
*A* 1

---

molecules and their reported growth
System: IGROV1 ovarian
Assay: NCI-60 one-dose screen, 48 h (100 = growth as untreated, 0 = no growth, -100 = all killed)
Details: 10 µM unless noted
Procedure: Growth inhibition of the IGROV1 human tumor cell line is measured as a screen for anti-cancer activity. Cells are grown in 96 well plates and exposed to the test compound for 48 hours. Compounds are tested at a single concentration, which is 10^-5 M for most compounds. The reported endpoint is percent growth (GI% or GIPRCNT), where numbers from 0 - 100% represent growth inhibition, and numbers from -100% - 0 represent cell death. For example, a value of 40 represents 60% growth inhibition. […]
About 83,000 compounds went through this panel and 20% of them were active in at least one assay; those are over-represented in the sample as a whole.
Express the result in % but write the number alone.

A selection of reference data follows.
{"columns": ["smilesString", "measuredTarget", "readoutUnit", "growth"],
 "data": [
  ["NNC(=O)c1nc(N)n(-c2ccc(S(N)(=O)=O)cc2)n1", "IGROV1 ovarian", "%", 103],
  ["O=Cc1c[nH]c2ccc(-c3csc4ccccc34)cc12", "IGROV1 ovarian", "%", 20.5],
  ["COc1ccc(-c2nc(SCCC(C)C)nc(N/N=C\\c3cccc(Cl)c3)c2C#N)cc1", "IGROV1 ovarian", "%", 76.2],
  ["CC(C)CCC[C@@H](C)[C@H]1CC[C@H]2[C@@H](Nc3ccc(O)cc3)CCC[C@]12C", "IGROV1 ovarian", "%", 38.8]
]}

*Q* Recorded growth of `Fc1cnc(NC2CC2)nc1-c1cnc2ccc(N3CCOCC3)cn12` , please.
*A* 4.44

---

System: HCC-2998 colon
Test: NCI-60 one-dose screen, 48 h
Conditions: 10 µM unless noted
About 83,000 compounds went through this panel and 20% of them were active in at least one assay; those are over-represented in the sample as a whole. The source made the active and inactive calls. Rule for the calls: active = growth percent below 10; inactive = the rest.
Mark one answer only. Choices: active, inactive

As a guide, the following entries are already answered.
{"columns": ["compound", "cat"],
 "data": [
  ["O=C(NCCNc1cc(-c2cn(-c3ccccc3)nc2-c2cccc(O)c2)ccn1)Nc1ccccc1", "inactive"],
  ["COC(=O)[C@]12CC[C@@H](C)[C@H](C)[C@@H]1C1=CC[C@@H]3[C@@]4(C)C(C=O)=C[C@@](C)(COC(=O)/C=C/c5ccccc5)[C@@H]4[C@H](O)C[C@@]3(C)[C@]1(C)CC2", "active"],
  ["CCc1ccccc1-n1c(N)c(C#N)c(-c2ccc(N(C)C)cc2)c(C#N)c1=O", "inactive"],
  ["COC(=O)c1ccc(C2Nc3ccc(S(=O)(=O)Nc4ccc(C)c(C)c4)cc3C3OCCC23)cc1 (configuration not stated)", "inactive"],
  ["CC(=O)C(C)Cc1cc2c(cc1C)C(C)(C)CCC2(C)C (configuration not stated)", "inactive"]
]}

*Q* Given `COC(=O)[C@]12CC[C@@H](C)[C@H](C)[C@@H]1C1=CC[C@@H]3[C@@]4(C)C(C=O)=C[C@@](C)(COC(C)=O)[C@@H]4[C@H](O)C[C@@]3(C)[C@]1(C)CC2` , state the outcome it received in this test.
*A* active

*Q* Given O=C(c1ccccc1)N1N=C(c2ccccc2)CC1c1nnc2n(Cc3ccccc3)c(=O)c3c4c(sc3n12)CCCC4 (configuration not stated) , state the outcome it received in this test.
*A* inactive

*Q* Given `COC(=O)c1c2c(c(C)[n+]([O-])c1C)C(=O)C(NCc1ccc(F)cc1)=CC2=O` , state the outcome it received in this test.
*A* inactive

*Q* Given `O=C(/C=C/c1c(Cl)nc2sccn12)c1nccs1` , state the outcome it received in this test.
*A* inactive

*Q* Given `CCOC(=O)c1c2c(n3ccc(NC(=O)OC(C)(C)C)cc13)C(=O)c1ncccc1C2=O` , state the outcome it received in this test.
*A* active
